# system: PARP (Homo sapiens, UniProt P09874)
# Sequence (P09874 whole entry): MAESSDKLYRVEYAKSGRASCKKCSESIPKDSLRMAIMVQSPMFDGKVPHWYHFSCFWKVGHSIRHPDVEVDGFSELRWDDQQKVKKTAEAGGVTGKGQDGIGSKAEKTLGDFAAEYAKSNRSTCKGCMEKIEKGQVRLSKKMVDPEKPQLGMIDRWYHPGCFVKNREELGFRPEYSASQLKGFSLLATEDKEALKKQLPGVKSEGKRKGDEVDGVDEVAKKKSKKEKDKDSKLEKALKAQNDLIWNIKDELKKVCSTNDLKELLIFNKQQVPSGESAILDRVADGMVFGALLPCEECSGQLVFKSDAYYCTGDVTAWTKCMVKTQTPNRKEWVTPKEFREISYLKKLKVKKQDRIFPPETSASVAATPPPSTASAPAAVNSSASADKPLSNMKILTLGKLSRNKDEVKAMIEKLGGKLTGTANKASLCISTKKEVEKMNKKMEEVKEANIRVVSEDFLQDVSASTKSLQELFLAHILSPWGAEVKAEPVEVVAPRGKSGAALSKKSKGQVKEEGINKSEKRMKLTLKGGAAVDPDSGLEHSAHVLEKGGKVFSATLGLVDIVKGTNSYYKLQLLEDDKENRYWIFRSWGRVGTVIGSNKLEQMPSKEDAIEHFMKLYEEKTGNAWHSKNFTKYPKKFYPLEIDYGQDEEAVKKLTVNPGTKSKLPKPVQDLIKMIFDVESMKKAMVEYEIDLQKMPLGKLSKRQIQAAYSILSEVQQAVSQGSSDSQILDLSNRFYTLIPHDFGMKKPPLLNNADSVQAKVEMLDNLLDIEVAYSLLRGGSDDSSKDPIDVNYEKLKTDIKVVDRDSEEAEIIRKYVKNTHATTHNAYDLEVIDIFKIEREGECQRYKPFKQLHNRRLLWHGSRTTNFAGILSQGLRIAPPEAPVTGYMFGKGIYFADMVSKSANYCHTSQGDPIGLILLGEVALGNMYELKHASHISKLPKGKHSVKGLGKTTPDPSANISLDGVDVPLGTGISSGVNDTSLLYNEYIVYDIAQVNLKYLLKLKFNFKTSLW
# measurement_notes: Enzymatic Assay 1: HT F Homogeneous PARP Inhibition Assay of cleaved compounds
# Type: biochemical
# Design: purchased Trevigen #4690-096-K (Assay 1); #4676-096-K (Assay 2)
# run_parameters: Examples cleaved per Example A (crude cleavage solution); R^8H starting materials as such; 1 uM NAD; read-out: IC50 Enzymatic Assay 1
measured_attribute: IC50 (nM)
Quick reminder: number only, in nM, skip the unit.

Ask: Which IC50 is reported for this compound? NC(=O)c1cccc2[nH]c(-c3ccc(CO)cc3)nc12 [R^8H-1, reference compound]
Result: 96.8

---

Entries annotated with measured pIC50
# system: PARP (Homo sapiens, UniProt P09874)
# measurement_notes: Enzymatic Assay 2: HT Universal Chemiluminescent PARP Assay of cleaved compounds;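 note: PARP reaction with activated DNA run 1 h at room temperature, product detected via streptavidin-HRP and luminescence endpoint reading on a plate reader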
# pIC50 = -log10(concentration in molar units)

C[C@]12CCCN1C1=NNC(=O)c3cc(F)cc4[nH]c(c1c34)C2 [R^8H-17, reference compound] ... 9.00

Next compound, pIC50 to be filled in.
Ask: Which pIC50 is reported for this compound? NC(=O)c1cccc2[nH]c(-c3ccc(CO)cc3)nc12 [R^8H-1, reference compound]
Result: 8.19
